Where these numbers come from: patent US12097261B2

Measured On: CDK2 (Homo sapiens, UniProt P24941)
Construct: endogenous in cells; host or cells: OVCAR-8
Assay: CDK2 degradation by immunoblotting in OVCAR-8 cells
Format: cell-based
Details: 24 h
Reported Property: DC50

Worked cases, DC50 given:
Molecule: CC(C)NC(=O)O[C@@H]1CC[C@H](c2cc(NC(=O)c3cnn(C4CCC(CN(C)C5CCN(Cc6cccc7c6n(C)c(=O)n7C6CCC(=O)NC6=O)CC5)CC4)c3)n[nH]2)C1 (some centres unmarked) [I-84]
Result: 1000 to 5000 nM
--
Molecule: Cc1cc(S(=O)(=O)NCCOCCOCCOCCOCCCc2cccc3c2n(C)c(=O)n3C2CCC(=O)NC2=O)ccc1Nc1ncc(Br)c(Nc2cccc(F)c2C(N)=O)n1 (centres unmarked) [I-37]
Result: 10 to 100 nM
--
Molecule: CC(C)NC(=O)O[C@@H]1CC[C@H](c2cc(NC(=O)Cc3cnn(CCCCCCCCCc4cccc5c4n(C)c(=O)n5C4CCC(=O)NC4=O)c3)[nH]n2)C1 (some centres unmarked) [I-104]
Result: 10 to 100 nM
--
Molecule: CC(C)NC(=O)O[C@@H]1CC[C@H](c2cc(NC(=O)c3cnn(CCCCCCCCCc4cccc5c4n(C)c(=O)n5C4CCC(=O)NC4=O)c3)[nH]n2)C1 (some centres unmarked) [I-92]
Result: 10 to 100 nM
--
Molecule: Cc1cc(S(=O)(=O)NCCOCCOCCCc2ccc3c(c2)n(C)c(=O)n3C2CCC(=O)NC2=O)ccc1Nc1ncc2c(n1)N(C1CCCC1)C(=O)C21CC1 (centres unmarked) [I-150]
Result: > 5000 nM

Data request: So what does the record say about DC50 for CC(C)NC(=O)O[C@@H]1CC[C@H](c2cc(NC(=O)c3ccnn3CCOCCOCCOCCOCCCc3cccc4c3n(C)c(=O)n4C3CCC(=O)NC3=O)n[nH]2)C1 (some centres unmarked) [I-55] ?
Data returned: 10 to 100 nM

Data request: How about CC(C)NC(=O)O[C@@H]1CC[C@H](c2cc(NC(=O)c3cnn(CCOCCOCCOCCOCCCc4ccc5c(c4)n(C)c(=O)n5C4CCC(=O)NC4=O)c3)[nH]n2)C1 (some centres unmarked) [I-77] ?
Data returned: 100 to 1000 nM

Data request: And then CC(C)NC(=O)O[C@@H]1CC[C@H](c2cc(NC(=O)c3ccnn3CCOCCOCCOCCOCCCc3ccc4c(c3)n(C)c(=O)n4C3CCC(=O)NC3=O)n[nH]2)C1 (some centres unmarked) [I-59] , what is it?
Data returned: 10 to 100 nM

Data request: Now this one: Cc1cc(S(=O)(=O)NCCOCCOCCOCCOCCNc2cccc3c2C(=O)N(C2CCC(=O)NC2=O)C3=O)ccc1Nc1ncc2cc(C(F)F)c(=O)n([C@@H]3CCC[C@@]3(C)O)c2n1 (some centres unmarked) [I-17]
Data returned: 10 to 100 nM

Data request: Can you check Cc1cc(S(=O)(=O)NCCO[C@H]2CC[C@H](CN3CCC(c4ccc5c(c4)n(C)c(=O)n5C4CCC(=O)NC4=O)CC3)CC2)ccc1Nc1ncc2cc(Cl)c(=O)n(C3CCCC3)c2n1 (some centres unmarked) [I-108] next?
Data returned: < 10 nM
